protocol.text: Metabolic stability in human liver microsomes (Human MST)
Type: in vitro ADME
measurement.setup: pH 7.6, pooled human liver microsomes, 37° C., read-out: Human MST t½
half-life at 1 μM by entry:
quantity: half-life at 1 μM (min)

• COc1ncc(-c2ccc(OCc3c(-c4ccc(C(F)F)cn4)nnn3C)nn2)cn1 = 127
• Cc1nnn(-c2ccc(C(F)F)cn2)c1COc1ccc(-c2cn[nH]c2)nn1 = 40
• Cn1nnc(-c2ccc(C(F)F)cn2)c1COc1ccc(-c2cnn(C3CCC3)c2)nn1 = 78

----------
pEC50 by entry:
test.system: α5ß2 γ2 GABAA Receptor (Homo sapiens, UniProt P18507+P31644)
Sequence (P31644 32-462): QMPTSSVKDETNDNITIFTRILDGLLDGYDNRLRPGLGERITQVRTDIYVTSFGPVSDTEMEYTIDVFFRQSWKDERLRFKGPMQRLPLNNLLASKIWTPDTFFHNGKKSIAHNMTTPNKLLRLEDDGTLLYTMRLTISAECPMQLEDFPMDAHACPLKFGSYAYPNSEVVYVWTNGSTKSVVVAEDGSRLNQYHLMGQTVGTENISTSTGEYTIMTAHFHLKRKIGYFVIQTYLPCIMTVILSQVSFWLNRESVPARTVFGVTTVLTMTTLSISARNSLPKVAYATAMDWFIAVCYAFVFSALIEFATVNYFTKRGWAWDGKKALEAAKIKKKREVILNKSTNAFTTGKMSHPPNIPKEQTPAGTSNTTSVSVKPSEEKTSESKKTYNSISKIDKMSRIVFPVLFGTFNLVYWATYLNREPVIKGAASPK
Sequence (P18507 40-376 limits assumed): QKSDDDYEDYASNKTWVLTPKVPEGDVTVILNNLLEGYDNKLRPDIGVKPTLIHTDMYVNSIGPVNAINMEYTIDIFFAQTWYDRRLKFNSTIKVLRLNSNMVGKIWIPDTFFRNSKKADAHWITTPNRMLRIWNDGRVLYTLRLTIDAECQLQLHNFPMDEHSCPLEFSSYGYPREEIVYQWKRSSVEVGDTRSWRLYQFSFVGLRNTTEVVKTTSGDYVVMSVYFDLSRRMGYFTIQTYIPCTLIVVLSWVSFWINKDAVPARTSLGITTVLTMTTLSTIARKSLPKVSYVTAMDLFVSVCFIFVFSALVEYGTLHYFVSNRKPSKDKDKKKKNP
protocol.text: Assay B: in vitro evaluation of modulation of α5ß2γ2 GABAA receptor, two-electrode voltage clamp in oocytes
measurement.setup: co-application with 0.5 μM GABA, oocytes; read-out: Assay B: GABAA α 5 β 3 γ 2 EC50
pEC50: −log10 of the molar value.
quantity: pEC50

* Cc1nnn(-c2ccc(C(F)F)cn2)c1COc1ccc(-c2ccc(S(C)(=O)=O)nc2)nn1 [Example 16] | 7.07
* Cn1nnc(-c2ccc(C(F)F)cn2)c1COc1ccc(-c2ccc(N)nc2)nn1 [Example 25] | 8.09
* Cc1nnn(-c2ccc(C(F)F)cn2)c1COc1ccc(-n2ncnc2C)nn1 [Example 38] | 7.64
* Cn1ccc(-c2ccc(OCc3c(-c4ccc(C(F)F)cn4)nnn3C)nn2)n1 [Example 34] | 8.38
* Cc1nnn(-c2ccc(C(F)F)cn2)c1COc1ccc(-c2ccnnc2)nn1 [Example 17] | 9.00
* Cc1nnn(-c2ccc(C(F)F)cn2)c1COc1ccc(-c2cn[nH]c2)nn1 [Example 4] | 7.03
* Cc1nnn(-c2ccc(C(F)F)cn2)c1COc1ccc(-n2cnc(C#N)c2)nn1 [Example 42] | 7.80
* Cc1nnn(-c2ccc(C(F)F)cn2)c1COc1ccc(-n2nccn2)nn1 [Example 43] | 7.61

----------
Assay B: GABAA α 5 β 3 γ 2 Emax vs GABA by entry:
test.system: α5ß2 γ2 GABAA Receptor (Homo sapiens, UniProt P18507+P31644)
protocol.text: Assay B: in vitro evaluation of modulation of α5ß2γ2 GABAA receptor, two-electrode voltage clamp in oocytes
Assay type: cell-based
quantity: Assay B: GABAA α 5 β 3 γ 2 Emax vs GABA (%)

* Cc1nnn(-c2ccc(C(F)F)cn2)c1COc1ccc(-c2c[nH]c(=O)c(F)c2)nn1 | -32.3
* CCn1cc(-c2ccc(OCc3c(-c4ccc(C(F)F)cn4)nnn3C)nn2)cn1 | -14.9
* Cc1nnn(-c2ccc(C(F)F)cn2)c1COc1ccc(-c2cnc(N)nc2)nn1 | -25.3
* Cc1nnn(-c2ccc(C(F)F)cn2)c1COc1ccc(-n2cncn2)nn1 | -20.3
* Cc1nnn(-c2ccc(C(F)F)cn2)c1COc1ccc(-c2ccc(C#N)s2)nn1 | -12.3
* Cc1nnn(-c2ccc(C(F)F)cn2)c1COc1ccc(-c2ccc(N)nc2)nn1 | -28.5
* Cc1nnn(-c2ccc(C(F)F)cn2)c1COc1ccc(-c2ccc(S(C)(=O)=O)nc2)nn1 | -20.3
* CCc1cn(-c2ccc(OCc3c(-c4ccc(C(F)F)cn4)nnn3C)nn2)nc1N | -10.3
* Cn1nnc(-c2ccc(C(F)F)cn2)c1COc1ccc(-c2cnc3nonc3c2)nn1 | -9.6
* Cc1nnn(-c2ccc(C(F)F)cn2)c1COc1ccc(-n2cc(F)cn2)nn1 | -34.7
* CNc1cc(C)nn1-c1ccc(OCc2c(-c3ccc(C(F)F)cn3)nnn2C)nn1 | -21.3
* Cc1nnn(-c2ccc(C(F)F)cn2)c1COc1ccc(-n2ccnn2)nn1 | -17.7
* Cc1nnn(-c2ccc(C(F)F)cn2)c1COc1ccc(-n2cnc(C#N)c2)nn1 | -25
* Cc1nnn(-c2ccc(C(F)F)cn2)c1COc1ccc(-c2ccc(C#N)nc2)nn1 | 2.7
* Cn1nnc(-c2ccc(C(F)F)cn2)c1COc1ccc(-n2cnc(C#N)c2)nn1 | -16
* Cc1nnn(-c2ccc(C(F)F)cn2)c1COc1ccc(-c2cnn(CC#N)c2)nn1 | -6.3
* Cn1nnc(-c2ccc(C(F)F)cn2)c1COc1ccc(-c2cccc(C(N)=O)c2)nn1 | -20

----------
Tested on: human MDR1 P-gp
protocol.text: Assessment of efflux in MDCK cells transfected with the human MDR1 gene
Assay type: in vitro ADME, canine
measurement.setup: dog, apical-to-basal, pH 7.4, 37° C., read-out: MDCK-PGP A-B
quantity: Papp A→B (×10⁻⁶ cm/s)

- Cn1nnc(-c2ccc(C(F)F)cn2)c1COc1ccc(-c2cn[nH]c2)nn1 [Example 24]: 10
- Cc1nnn(-c2ccc(C(F)F)cn2)c1COc1ccc(-c2cnc(N)nc2)nn1 [Example 2]: 34
- Cc1cc(-c2ccc(OCc3c(C)nnn3-c3ccc(C(F)F)cn3)nn2)cnn1 [Example 3]: 41
- Cc1nnn(-c2ccc(C(F)F)cn2)c1COc1ccc(-n2cc(C#N)cn2)nn1 [Example 37]: 59
- Cc1nnn(-c2ccc(C(F)F)cn2)c1COc1ccc(-c2ccc(S(C)(=O)=O)nc2)nn1 [Example 16]: 59

----------
test.system: human GABAA α5β3γ2s receptor (Homo sapiens, UniProt P18507+P31644)
protocol.text: Assay A: in vitro inhibition of 3H-flumazenil binding, HEK cells expressing the human GABAA α5β3γ2s receptor
measurement.setup: read-out: Assay A: GABAA α 5 β 3 γ 2s Ki
Protocol: Cell Cultures and Membrane Preparation […] Non-specific binding is determined using clonazepam ([…]). […] The amount of radioactivity on the filters is determined by conventional liquid scintillation counting using a […] The IC50 value for a test compound is determined based on the equation: […] The Ki value for a test compound can be calculated from the IC50 value using the equation by Cheng and Prusoff: […]
Ki by entry:
quantity: Ki (nM)

* Cc1nnn(-c2ccc(C(F)F)cn2)c1COc1ccc(-c2ccc(=O)n(C)c2)nn1 [Example 1] | 10
* Cc1nccn1-c1ccc(OCc2c(-c3ccc(C(F)F)cn3)nnn2C)nn1 [Example 47] | 120
* Cc1cc(-c2ccc(OCc3c(C)nnn3-c3ccc(C(F)F)cn3)nn2)cnn1 [Example 3] | 13
* Cc1nn(C)cc1-c1ccc(OCc2c(-c3ccc(C(F)F)cn3)nnn2C)nn1 [Example 30] | 24
* Cc1nnn(-c2ccc(C(F)F)cn2)c1COc1ccc(-n2ccnn2)nn1 [Example 44] | 14
* Cc1ncnn1-c1ccc(OCc2c(-c3ccc(C(F)F)cn3)nnn2C)nn1 [Example 48] | 82
* Cc1nnn(-c2ccc(C(F)F)cn2)c1COc1ccc(-c2cc[nH]n2)nn1 [Example 5] | 16
* Cc1c(-c2ccc(OCc3c(-c4ccc(C(F)F)cn4)nnn3C)nn2)cc(C#N)n1C [Example 29] | 19
* Cn1nnc(-c2ccc(C(F)F)cn2)c1COc1ccc(-n2cc(Cl)cn2)nn1 [Example 51] | 15

----------
System: human MDR1 P-gp
protocol.text: Assessment of efflux in MDCK cells transfected with the human MDR1 gene
Format: in vitro ADME, canine
measurement.setup: dog, pH 7.4, 37° C., read-out: MDCK-PGP Efflux ratio [PEBA/PEAB]
quantity: efflux ratio

• Cc1nnn(-c2ccc(C(F)F)cn2)c1COc1ccc(-n2ncnc2C)nn1 = 0.5
• Cc1nnn(-c2ccc(C(F)F)cn2)c1COc1ccc(-c2cn[nH]c2)nn1 = 0.8
• Cc1nnn(-c2ccc(C(F)F)cn2)c1COc1ccc(-c2ccnnc2)nn1 = 1
• Cc1nnn(-c2ccc(C(F)F)cn2)c1COc1ccc(-n2cnc(C#N)c2)nn1 = 1.4
• Cc1nnn(-c2ccc(C(F)F)cn2)c1COc1ccc(-c2ccc(=O)n(C)c2)nn1 = 1.8
• Cc1nnn(-c2ccc(C(F)F)cn2)c1COc1ccc(-c2ccc(C#N)s2)nn1 = 0.3
• Cc1nnn(-c2ccc(C(F)F)cn2)c1COc1ccc(-n2nccn2)nn1 = 0.7
• Cc1cc(-c2ccc(OCc3c(C)nnn3-c3ccc(C(F)F)cn3)nn2)cnn1 = 1.4
• Cc1nnn(-c2ccc(C(F)F)cn2)c1COc1ccc(-n2cc(C#N)cn2)nn1 = 0.4
